Source: ChEMBL document CHEMBL2150984

test system: Bacillus subtilis; assay: Antibacterial activity against Bacillus subtilis ATCC 6633 by broth microdilution method; assay type: functional
Documented MIC across a set of compounds
Please give a number only; it is taken to be in µg/mL.

COC(=O)[C@H]1NC(=O)[C@H]2NC(=O)[C@H](NC(=O)[C@@H]3NC(=O)[C@H]4NC(=O)[C@H](NC(=O)[C@H](n5cc6ccccc6c5Sc5ccccc5)c5ccc(O)c(c5)Oc5cc4cc(O)c5C)[C@H](O)c4ccc(cc4)Oc4cc3cc(c4O)Oc3ccc(cc3)[C@H]2O)c2ccc(O)c(c2)-c2c(O)cc(O)cc21 : 2
COC(=O)[C@H]1NC(=O)[C@H]2NC(=O)[C@H](NC(=O)[C@@H]3NC(=O)[C@H]4NC(=O)[C@H](NC(=O)[C@H](n5cc6ccccc6c5Sc5ncccn5)c5ccc(O)c(c5)Oc5cc4cc(O)c5C)[C@H](O)c4ccc(cc4)Oc4cc3cc(c4O)Oc3ccc(cc3)[C@H]2O)c2ccc(O)c(c2)-c2c(O)cc(O)cc21 : 0.5

We next turn to a different compound, shown below.
## Task Recorded MIC for COC(=O)[C@H]1NC(=O)[C@H]2NC(=O)[C@H](NC(=O)[C@@H]3NC(=O)[C@H]4NC(=O)[C@H](NC(=O)[C@H](n5cc6ccccc6c5S[C@@H]5O[C@H](COC(C)=O)[C@@H](OC(C)=O)[C@H](OC(C)=O)[C@H]5OC(C)=O)c5ccc(O)c(c5)Oc5cc4cc(O)c5C)[C@H](O)c4ccc(cc4)Oc4cc3cc(c4O)Oc3ccc(cc3)[C@H]2O)c2ccc(O)c(c2)-c2c(O)cc(O)cc21 , please?
## Result 8
